System: ATP;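 note: ATP exposure 15 min at 22 °C before imaging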
Assay info: switch fluorescence ratio, 500 uM ATP over buffer (Cy3 cluster intensity, sum of 5 cycles each) (fold (ratio)); higher = stronger signal-on switching upon ATP binding; sequences stand for … in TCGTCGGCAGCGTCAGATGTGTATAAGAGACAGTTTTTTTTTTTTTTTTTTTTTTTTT…TC
Condition: aptamer strand: ATP DNA aptamer (quencher-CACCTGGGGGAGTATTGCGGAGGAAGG + anchor), 100 nM annealed; ATP concentration: 500 uM
Parameter measured: switch fluorescence ratio
// keep it numeric: no unit symbol after the value

Example sequences with recorded switch fluorescence ratio:
Sequence content | Recorded value
AGGTAGAATA | 0.989
TGGGAACTCT | 0.994
TGAGGAAAGA | 0.988
CTGTTTAAGG | 0.986
TCGTTGTGTG | 0.981
TAAGCGGGTA | 1.02

Request: If you can, please state the reported switch fluorescence ratio value of GGTTGCATCA .
Result: 0.994

Request: If you can, please state the reported switch fluorescence ratio value of ATGGACCGTT .
Result: 1.02

Request: If you can, please state the reported switch fluorescence ratio value of AAAATAAGAG .
Result: 1.01

----------
Test system: ATP;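 note: ATP exposure 15 min at 22 °C before imaging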
Assay info: switch fluorescence ratio, 500 uM ATP over buffer (Cy3 cluster intensity, sum of 5 cycles each) (fold (ratio)); higher = stronger signal-on switching upon ATP binding; sequences stand for … in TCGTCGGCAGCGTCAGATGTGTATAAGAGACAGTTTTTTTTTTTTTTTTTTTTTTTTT…TC
Condition: aptamer strand: ATP DNA aptamer (quencher-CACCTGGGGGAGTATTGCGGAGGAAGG + anchor), 100 nM annealed; ATP concentration: 500 uM
Parameter measured: switch fluorescence ratio
// keep it numeric: no unit symbol after the value

Request: If you can, please state the reported switch fluorescence ratio value of TGAAGGCTTT .
Result: 1.01

Request: If you can, please state the reported switch fluorescence ratio value of ACTATTTCGA .
Result: 1.01

Request: If you can, please state the reported switch fluorescence ratio value of GCGGGTATGG .
Result: 1

----------
Recorded switch fluorescence ratio values for a group of sequences are listed next.
Tested on: ATP;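 note: ATP exposure 15 min at 22 °C before imaging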
Assay info: switch fluorescence ratio, 500 uM ATP over buffer (Cy3 cluster intensity, sum of 5 cycles each) (fold (ratio)); higher = stronger signal-on switching upon ATP binding; sequences stand for … in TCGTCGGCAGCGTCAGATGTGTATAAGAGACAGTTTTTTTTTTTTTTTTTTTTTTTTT…TC
Condition: aptamer strand: ATP DNA aptamer (quencher-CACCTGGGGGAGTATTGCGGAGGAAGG + anchor), 100 nM annealed; ATP concentration: 500 uM
// keep it numeric: no unit symbol after the value

Example sequences with recorded switch fluorescence ratio:
Sequence content | switch fluorescence ratio
AAGGTGGATG | 0.992
GATTGATGTG | 0.995
GGATGCAGAT | 0.997
AATTTGTGTT | 0.992
CTCTAAGTCG | 0.976

Request: If you can, please state the reported switch fluorescence ratio value of TTGGGTTTCT .
Result: 0.98

Request: If you can, please state the reported switch fluorescence ratio value of CATCTGATTA .
Result: 0.988

Request: If you can, please state the reported switch fluorescence ratio value of TAGATCGAAC .
Result: 1.02

Request: If you can, please state the reported switch fluorescence ratio value of TTTTGCTGCA .
Result: 0.978

Request: If you can, please state the reported switch fluorescence ratio value of AATTGACGTA .
Result: 1.02

Request: If you can, please state the reported switch fluorescence ratio value of AGGCGGGACA .
Result: 1.02

Request: If you can, please state the reported switch fluorescence ratio value of TGAGGTGTTG .
Result: 1.01

Request: If you can, please state the reported switch fluorescence ratio value of AATGTCTCAG .
Result: 1.01

Request: If you can, please state the reported switch fluorescence ratio value of TAGTAAGTTT .
Result: 0.998

Request: If you can, please state the reported switch fluorescence ratio value of TTTATGCGGG .
Result: 1.02

----------
Tested on: ATP;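 note: ATP exposure 15 min at 22 °C before imaging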
Assay info: switch fluorescence ratio, 500 uM ATP over buffer (Cy3 cluster intensity, sum of 5 cycles each) (fold (ratio)); higher = stronger signal-on switching upon ATP binding; sequences stand for … in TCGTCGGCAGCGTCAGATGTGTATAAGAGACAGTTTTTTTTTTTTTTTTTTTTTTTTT…TC
Condition: aptamer strand: ATP DNA aptamer (quencher-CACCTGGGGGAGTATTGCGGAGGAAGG + anchor), 100 nM annealed; ATP concentration: 500 uM
Parameter measured: switch fluorescence ratio
// keep it numeric: no unit symbol after the value

Sequence content | Parameter measured | Recorded value
TCATGGGGGG | switch fluorescence ratio | 1.01
ACTTGTTTGG | switch fluorescence ratio | 1.01
GGGTCTGACT | switch fluorescence ratio | 1
TGGCAAATGT | switch fluorescence ratio | 0.982
GGGTTTTTTT | switch fluorescence ratio | 0.998

Continue with the next sequence.
Request: If you can, please state the reported switch fluorescence ratio value of ATTTAAGCTC .
Result: 0.987

----------
Test system: ATP;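 note: ATP exposure 15 min at 22 °C before imaging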
Assay info: switch fluorescence ratio, 500 uM ATP over buffer (Cy3 cluster intensity, sum of 5 cycles each) (fold (ratio)); higher = stronger signal-on switching upon ATP binding; sequences stand for … in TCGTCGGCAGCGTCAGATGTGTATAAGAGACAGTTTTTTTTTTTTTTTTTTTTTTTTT…TC
Condition: aptamer strand: ATP DNA aptamer (quencher-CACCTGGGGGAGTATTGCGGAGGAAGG + anchor), 100 nM annealed; ATP concentration: 500 uM
Recorded switch fluorescence ratio values for a group of sequences are listed next.
// keep it numeric: no unit symbol after the value

Example sequences with recorded switch fluorescence ratio:
Sequence content | switch fluorescence ratio
CTAAGCGGCG | 0.999
GTTTGCGGGC | 0.947
AAGGGACATT | 1.01
TAGTTGGATT | 0.972
ATTCGGGGGC | 1.11

Request: If you can, please state the reported switch fluorescence ratio value of CGCGGGGTAC .
Result: 1.66

Request: If you can, please state the reported switch fluorescence ratio value of TTGCCAATCC .
Result: 1.04

Request: If you can, please state the reported switch fluorescence ratio value of GGGCAAGGTG .
Result: 1.21

Request: If you can, please state the reported switch fluorescence ratio value of GGATGCCAGT .
Result: 0.998

Request: If you can, please state the reported switch fluorescence ratio value of GACCTTTGAG .
Result: 1.02

----------
Recorded switch fluorescence ratio values for a group of sequences are listed next.
Tested on: ATP;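 note: ATP exposure 15 min at 22 °C before imaging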
Assay info: switch fluorescence ratio, 500 uM ATP over buffer (Cy3 cluster intensity, sum of 5 cycles each) (fold (ratio)); higher = stronger signal-on switching upon ATP binding; sequences stand for … in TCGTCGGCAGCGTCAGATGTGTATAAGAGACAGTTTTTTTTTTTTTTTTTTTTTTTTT…TC
Condition: aptamer strand: ATP DNA aptamer (quencher-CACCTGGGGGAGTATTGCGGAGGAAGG + anchor), 100 nM annealed; ATP concentration: 500 uM
// keep it numeric: no unit symbol after the value

Sequence content | Target | switch fluorescence ratio
GGTTGAGGAC | ATP | 1.01
TGGTGAGGGC | ATP | 0.982
CGGCTACATT | ATP | 1
CGTGTCGCGC | ATP | 1
GCACTGTGGG | ATP | 1
GCGTCGGGGA | ATP | 1

Request: // fetch ATP switch fluorescence ratio for GGCAGTGTGC
Result: 0.99

----------
Tested on: ATP;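 note: ATP exposure 15 min at 22 °C before imaging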
Assay info: switch fluorescence ratio, 500 uM ATP over buffer (Cy3 cluster intensity, sum of 5 cycles each) (fold (ratio)); higher = stronger signal-on switching upon ATP binding; sequences stand for … in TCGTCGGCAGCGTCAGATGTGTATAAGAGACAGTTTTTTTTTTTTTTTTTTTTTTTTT…TC
Condition: aptamer strand: ATP DNA aptamer (quencher-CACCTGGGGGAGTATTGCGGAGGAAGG + anchor), 100 nM annealed; ATP concentration: 500 uM
Parameter measured: switch fluorescence ratio

Example sequences with recorded switch fluorescence ratio:
Sequence content | switch fluorescence ratio
AGATGTGTCT | 1.02
CGGTGGGGGC | 0.981
TTAGACATTT | 1.01

Continue with the next sequence.
Request: // fetch ATP switch fluorescence ratio for TAACATGTTC
Result: 0.995

----------
Tested on: ATP;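 note: ATP exposure 15 min at 22 °C before imaging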
Assay info: switch fluorescence ratio, 500 uM ATP over buffer (Cy3 cluster intensity, sum of 5 cycles each) (fold (ratio)); higher = stronger signal-on switching upon ATP binding; sequences stand for … in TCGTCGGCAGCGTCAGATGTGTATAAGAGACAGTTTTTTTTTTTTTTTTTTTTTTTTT…TC
Condition: aptamer strand: ATP DNA aptamer (quencher-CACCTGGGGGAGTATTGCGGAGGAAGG + anchor), 100 nM annealed; ATP concentration: 500 uM
Parameter measured: switch fluorescence ratio
// keep it numeric: no unit symbol after the value

Sequence content | Recorded value
CGGTGCCTTG | 0.978

Request: If you can, please state the reported switch fluorescence ratio value of GGACCGGCCG .
Result: 1.01

Request: If you can, please state the reported switch fluorescence ratio value of TGGCTCAGTC .
Result: 0.997

Request: If you can, please state the reported switch fluorescence ratio value of AGAATCCTG .
Result: 0.995

Request: If you can, please state the reported switch fluorescence ratio value of GGAGGGGGAA .
Result: 1

Request: If you can, please state the reported switch fluorescence ratio value of AAGGGGAATT .
Result: 1.01

Request: If you can, please state the reported switch fluorescence ratio value of GGTTGAGGGA .
Result: 0.979
